assay: Cytotoxicity against human SH-SY5Y cells expressing wild-type APP assessed as cell viability at 600 uM by trypan blue dye exclusion assay relative to control; type: cell-based; settings: read-out: Activity
reported_property: viability at 600 µM

>>> reported("C=C1C(=O)C(C)=C(C)C1(C)C")
"> 90%"
